# measured.on: HLA-B*58:01
# protocol: IEDB peptide-MHC binding, purified MHC/competitive/radioactivity; filed as Kd, often an IC50 or EC50 that approximates it; bounds were set here for any values at or beyond the usual limits of such assays
# conditions: source organism: Dengue virus 1 Brazil/97-11/1997
endpoint: Kd (nM)
Output spec: scalar in nM, unitless text.

TTLSLDYAW    1.66

Would you kindly look at the next entry?
q: Give the measured Kd of `RSVSGDLIL` .
a: 9.84

###

# measured.on: HLA-A*02:06
# protocol: IEDB peptide-MHC binding, purified MHC/competitive/radioactivity; filed as Kd, often an IC50 or EC50 that approximates it; bounds were set here for any values at or beyond the usual limits of such assays
# conditions: source organism: SARS coronavirus Tor2
pKd: −log10 of the molar value.
Kindly return 1 if reported pKd is no lower than 8; return 0 if it is lower.

Recorded results for 4 sequences are shown here.
FLMSFTILCL    0
GTSAAAYFV    0
IAACAMLLV    0
MQVFFGYFA    1

q: pKd >= 8 for `WLMWFIISIV` ?
a: 0

q: pKd >= 8 for `VIADYNYKL` ?
a: 0

q: pKd >= 8 for `LVIGVAFLAV` ?
a: 1
